- testTarget: T1, Peptide 4: Biotin-AGGGGSGGGGSGGGGSAAA-Tyr-acid (N-terminal biotin; C-terminal acid)
- T1 construct: control peptide without PC
- T1 peptide: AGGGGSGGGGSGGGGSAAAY
- testMethodNotes: scFv ELISA
- Description: For ELISA analysis of scFv binding, 96-well polystyrene plates were coated with Peptide 1, 4, 5, 8 or 100 μL BSA (10 μg/mL) in PBS at 4° C. overnight. […] All plates were washed three times with PBS-Tween before 40 μL aliquots of PPE were added to assay plates along with 50 μL 10% BSA, and plates were incubated for 1 hour at room temperature. […] The amount of scFv bound to each well was quantitated from absorbance measurement at 450 nm (OD450).
recordedEndpoint: OD450 (OD450)
Write the number in OD450 without appending the unit.

// below: answered binders
>  <binder>
PcOxP_DB03_G06 (scFv, V domains shown, scFv in periplasmic extract) VH: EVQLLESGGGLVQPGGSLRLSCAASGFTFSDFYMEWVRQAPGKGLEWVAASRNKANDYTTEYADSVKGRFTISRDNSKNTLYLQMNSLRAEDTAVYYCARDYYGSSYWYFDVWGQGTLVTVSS VL: DIQMTQSPSSLSASVGDRVTITCTASESLYSSKHKVHYLAWYQQKPGKAPKLLIYGASNRYIGVPSRFSGSGSGTDFTLTISSLQPEDFATYYCAQFYEYPLTFGGGTKVEIK

>  <OD450, OD450>
0.06

$$$$
>  <binder>
PcOxP_DB01_A06 (scFv, V domains shown, scFv in periplasmic extract) VH: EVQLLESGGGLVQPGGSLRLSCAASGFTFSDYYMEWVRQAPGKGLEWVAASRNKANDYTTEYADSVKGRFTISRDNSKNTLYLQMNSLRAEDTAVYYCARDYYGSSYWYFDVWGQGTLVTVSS VL: DIQMTQSPSSLSASVGDRVTITCTASESLYSSKHKVHYLAWYQQKPGKAPKLLIYGASNRYIGVPSRFSGSGSGTDFTLTISSLQPEDFATYYCAEFYSYPLTFGGGTKVEIK

>  <OD450, OD450>
0.06

$$$$
>  <binder>
PcOxP_DB03_D07 (scFv, V domains shown, scFv in periplasmic extract) VH: EVQLLESGGGLVQPGGSLRLSCAASGFTFSDVYMEWVRQAPGKGLEWVAASRNKANDYTTEYADSVKGRFTISRDNSKNTLYLQMNSLRAEDTAVYYCARDYYGSSYWYFDVWGQGTLVTVSS VL: DIQMTQSPSSLSASVGDRVTITCTASESLYSSKHKVHYLAWYQQKPGKAPKLLIYGASNRYSGVPSRFSGSGSGTDFTLTISSLQPEDFATYYCAQFYKYPLTFGGGTKVEIK

>  <OD450, OD450>
0.06

$$$$
>  <binder>
PcOxP_DB02_A06 (scFv, V domains shown, scFv in periplasmic extract) VH: EVQLLESGGGLVQPGGSLRLSCAASGFTFSDQYMEWVRQAPGKGLEWVAASRNKANDYTTEYADSVKGRFTISRDNSKNTLYLQMNSLRAEDTAVYYCARDYYGSSYWYFDVWGQGTLVTVSS VL: DIQMTQSPSSLSASVGDRVTITCTASESLYSSKHKVHYLAWYQQKPGKAPKLLIYGLSNRYIGVPSRFSGSGSGTDFTLTISSLQPEDFATYYCAQFYSYPLTFGGGTKVEIK

>  <OD450, OD450>
0.05

$$$$
>  <binder>
PcOxP_DB01_E11 (scFv, V domains shown, scFv in periplasmic extract) VH: EVQLLESGGGLVQPGGSLRLSCAASGFTFSDFYMEWVRQAPGKGLEWVAASRNKANDYVTEYADSVKGRFTISRDNSKNTLYLQMNSLRAEDTAVYYCARDYYGSSYWYFDVWGQGTLVTVSS VL: DIQMTQSPSSLSASVGDRVTITCTASFSLYSSKHKVHYLAWYQQKPGKAPKLLIYGASNRYPGVPSRFSGSGSGTDFTLTISSLQPEDFATYYCAQFYYYPLTFGGGTKVEIK

>  <OD450, OD450>
0.05

$$$$
>  <binder>
PcOxP_DB02_E10 (scFv, V domains shown, scFv in periplasmic extract) VH: EVQLLESGGGLVQPGGSLRLSCAASGFTFSDQYMEWVRQAPGKGLEWVAASRNKANDYQTEYADSVKGRFTISRDNSKNTLYLQMNSLRAEDTAVYYCARDYYGSSYWYFDVWGQGTLVTVSS VL: DIQMTQSPSSLSASVGDRVTITCTASESLYSGKHKVHYLAWYQQKPGKAPKLLIYGASNLQIGVPSRFSGSGSGTDFTLTISSLQPEDFATYYCAQFYYYPLTFGGGTKVEIK

>  <OD450, OD450>
0.04

$$$$
>  <binder>
PcOxP_DB02_F12 (scFv, V domains shown, scFv in periplasmic extract) VH: EVQLLESGGGLVQPGGSLRLSCAASGFTFSDAYMEWVRQAPGKGLEWVAASRNKANDYTTEYADSVKGRFTISRDNSKNTLYLQMNSLRAEDTAVYYCARDYYGSSYWYFDVWGQGTLVTVSS VL: DIQMTQSPSSLSASVGDRVTITCEASESLYSSKHKVHYLAWYQQKPGKAPKLLIYGASNRYPGVPSRFSGSGSGTDFTLTISSLQPEDFATYYCAQFYEYPLTFGGGTKVEIK

>  <OD450, OD450>
0.04

$$$$

Pending binder:
**Query** Which measured OD450 value corresponds to PcOxP_DB01_C04 (scFv, V domains shown, scFv in periplasmic extract) VH: EVQLLESGGGLVQPGGSLRLSCAASGFQFSDFYMEWVRQAPGKGLEWVAASRNKANDYTTEYADSVKGRFTISRDNSKNTLYLQMNSLRAEDTAVYYCARDYYGSSYWYFDVWGQGTLVTVSS VL: DIQMTQSPSSLSASVGDRVTITCTASESLYSSKHKVHYLAWYQQKPGKAPKLLIYGASNRYIGVPSRFSGSGSGTDFTLTISSLQPEDFATYYCAQFYYYPLTFGGGTKVEIK ?
**Result** 0.05
